target: FGFR1 (UniProt P11362); assay: phosphorylation enrichment, bacterial display (enrichment ratio); higher = better substrate or ligand; peptides without Tyr show the background
Sequence (P11362 whole entry, looked up): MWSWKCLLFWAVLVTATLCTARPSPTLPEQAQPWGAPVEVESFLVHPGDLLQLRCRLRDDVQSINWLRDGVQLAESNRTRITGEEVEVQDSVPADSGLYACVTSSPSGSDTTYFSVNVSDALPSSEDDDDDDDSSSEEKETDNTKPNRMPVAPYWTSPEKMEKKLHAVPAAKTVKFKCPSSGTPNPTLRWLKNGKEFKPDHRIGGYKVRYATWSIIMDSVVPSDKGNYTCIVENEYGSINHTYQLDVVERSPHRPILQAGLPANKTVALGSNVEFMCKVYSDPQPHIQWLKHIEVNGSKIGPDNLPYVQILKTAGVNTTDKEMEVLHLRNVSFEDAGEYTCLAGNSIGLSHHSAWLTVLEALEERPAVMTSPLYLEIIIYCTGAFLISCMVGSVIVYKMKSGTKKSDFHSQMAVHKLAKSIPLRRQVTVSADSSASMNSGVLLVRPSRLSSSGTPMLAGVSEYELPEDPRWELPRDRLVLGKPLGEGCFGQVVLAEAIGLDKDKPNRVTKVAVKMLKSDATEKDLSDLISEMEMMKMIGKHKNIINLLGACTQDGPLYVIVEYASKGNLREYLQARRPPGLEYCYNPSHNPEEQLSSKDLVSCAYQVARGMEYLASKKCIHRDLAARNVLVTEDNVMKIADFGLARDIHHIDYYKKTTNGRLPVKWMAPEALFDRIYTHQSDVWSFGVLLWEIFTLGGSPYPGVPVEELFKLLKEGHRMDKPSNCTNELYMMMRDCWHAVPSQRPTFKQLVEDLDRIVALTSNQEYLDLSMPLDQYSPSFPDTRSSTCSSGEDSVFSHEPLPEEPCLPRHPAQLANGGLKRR
quantity_name: phosphorylation enrichment
// response body must contain only the number

Example results:
residue_codes	phosphorylation enrichment
PQGVRYIFTID [DCX_Y103_YF]	0.61
REDVFYTSKLW [AKR1C2_Y81_I79V]	0.742
ADPQEYIPLPA [JAKtide_2014]	0.75

Turning to the following sequence.
Input line: Reported phosphorylation enrichment, sequence VDASYYGGRGV [ANTXR2_Y381] : ____
Output line: 0.772

###

biological target: MERTK (UniProt Q12866); assay: phosphorylation enrichment, bacterial display (enrichment ratio); higher = better substrate or ligand; peptides without Tyr show the background
Sequence (Q12866 whole entry, looked up): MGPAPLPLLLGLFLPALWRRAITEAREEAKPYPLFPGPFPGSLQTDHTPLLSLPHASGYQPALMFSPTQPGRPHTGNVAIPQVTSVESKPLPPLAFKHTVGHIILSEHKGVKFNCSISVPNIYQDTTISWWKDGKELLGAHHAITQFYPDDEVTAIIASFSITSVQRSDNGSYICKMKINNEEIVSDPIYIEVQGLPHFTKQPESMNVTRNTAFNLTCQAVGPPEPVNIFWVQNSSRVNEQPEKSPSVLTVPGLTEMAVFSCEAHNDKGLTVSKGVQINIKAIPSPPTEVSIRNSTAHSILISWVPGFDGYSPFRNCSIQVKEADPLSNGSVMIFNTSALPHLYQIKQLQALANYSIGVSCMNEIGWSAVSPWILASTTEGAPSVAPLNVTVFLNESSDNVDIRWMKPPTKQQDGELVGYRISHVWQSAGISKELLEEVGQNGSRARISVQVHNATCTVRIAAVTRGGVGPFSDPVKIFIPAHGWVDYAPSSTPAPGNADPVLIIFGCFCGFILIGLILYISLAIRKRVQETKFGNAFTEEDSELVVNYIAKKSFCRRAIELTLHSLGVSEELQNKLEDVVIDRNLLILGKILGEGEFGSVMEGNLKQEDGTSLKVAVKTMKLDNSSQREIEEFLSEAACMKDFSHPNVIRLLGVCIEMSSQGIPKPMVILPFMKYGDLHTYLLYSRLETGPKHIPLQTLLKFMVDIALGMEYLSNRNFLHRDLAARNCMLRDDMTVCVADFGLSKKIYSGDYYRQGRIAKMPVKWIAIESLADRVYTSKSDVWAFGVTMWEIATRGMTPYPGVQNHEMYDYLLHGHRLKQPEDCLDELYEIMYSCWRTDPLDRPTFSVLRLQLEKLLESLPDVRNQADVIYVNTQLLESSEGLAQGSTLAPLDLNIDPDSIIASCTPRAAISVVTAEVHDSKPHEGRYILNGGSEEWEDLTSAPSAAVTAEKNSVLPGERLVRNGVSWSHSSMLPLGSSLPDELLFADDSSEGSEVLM
Label True when phosphorylation enrichment is at or above 0.5; otherwise label False.

The following sequences have reported results that may help.
residue_codes	tested_target	label_value
RGEKQYLATPL [ALOX12_Y295_A298T]	MERTK (UniProt Q12866)	True
ILKPDYQPLAI [HYDIN_Y1072]	MERTK (UniProt Q12866)	False
GNEEAYGSSHI [FAM171B_Y522_R524S]	MERTK (UniProt Q12866)	True
KLQKYYRQNPD [EHHADH_Y683]	MERTK (UniProt Q12866)	False
IYLGAYDRFLP [SLC22A5_Y486_V481I]	MERTK (UniProt Q12866)	True

Input line: Does the sequence SRVTQYERNFE [SNX1_Y463_D466N] have recorded phosphorylation enrichment that is 0.5 or more?
Output line: False

Input line: Entry FGSSSYGGAGG [RPA2_Y14_YF] : is its phosphorylation enrichment no less than 0.5?
Output line: False

###

Below, each of the sequences is paired with its reported phosphorylation enrichment value.
molecular target: Jak2 (UniProt O60674); assay: phosphorylation enrichment, bacterial display (enrichment ratio); higher = better substrate or ligand; peptides without Tyr show the background
Sequence (O60674 whole entry, looked up): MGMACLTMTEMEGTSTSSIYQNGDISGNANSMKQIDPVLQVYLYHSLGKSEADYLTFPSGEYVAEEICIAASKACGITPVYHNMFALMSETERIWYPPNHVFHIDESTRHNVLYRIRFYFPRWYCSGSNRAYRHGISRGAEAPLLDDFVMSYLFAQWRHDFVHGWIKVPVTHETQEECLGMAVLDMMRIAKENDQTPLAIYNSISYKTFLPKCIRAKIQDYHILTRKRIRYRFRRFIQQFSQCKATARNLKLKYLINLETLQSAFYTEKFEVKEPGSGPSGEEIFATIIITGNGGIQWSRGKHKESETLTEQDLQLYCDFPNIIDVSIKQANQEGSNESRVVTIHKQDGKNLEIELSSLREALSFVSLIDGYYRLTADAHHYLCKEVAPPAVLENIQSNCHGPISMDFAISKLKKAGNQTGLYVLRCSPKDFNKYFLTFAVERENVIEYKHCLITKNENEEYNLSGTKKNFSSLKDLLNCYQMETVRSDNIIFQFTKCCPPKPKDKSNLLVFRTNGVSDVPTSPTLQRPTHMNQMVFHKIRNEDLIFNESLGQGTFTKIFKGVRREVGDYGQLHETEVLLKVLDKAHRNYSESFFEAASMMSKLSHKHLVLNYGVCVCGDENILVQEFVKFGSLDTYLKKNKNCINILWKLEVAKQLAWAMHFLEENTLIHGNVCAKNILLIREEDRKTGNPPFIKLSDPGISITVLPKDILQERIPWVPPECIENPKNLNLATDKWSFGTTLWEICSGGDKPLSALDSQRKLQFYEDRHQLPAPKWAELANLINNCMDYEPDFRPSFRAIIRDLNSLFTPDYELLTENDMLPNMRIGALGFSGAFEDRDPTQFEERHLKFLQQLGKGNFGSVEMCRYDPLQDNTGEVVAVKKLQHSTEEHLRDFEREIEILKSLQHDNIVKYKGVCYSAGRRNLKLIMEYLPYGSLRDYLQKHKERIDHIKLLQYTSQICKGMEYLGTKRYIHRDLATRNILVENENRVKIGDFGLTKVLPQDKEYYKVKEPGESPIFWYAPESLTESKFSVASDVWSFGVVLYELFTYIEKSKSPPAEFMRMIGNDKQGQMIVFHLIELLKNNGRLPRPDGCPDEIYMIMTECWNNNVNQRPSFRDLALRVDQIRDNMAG
Number only, no unit.

Solved cases (2 shown):
residue_codes	phosphorylation enrichment
TVNIRYLLFPS [SERAC1_Y548_S543T]	1.11
ADARMYGVLPW [PLP1_Y207]	0.7

Input line: Request the reported phosphorylation enrichment associated with TDLAFYLVREG [ASL_Y376_K380E_YF]
Output line: 1.24

Input line: Could you tell me which phosphorylation enrichment is on file for IPGRFYETGSI [PAX2_Y73_L69P_YF] ?
Output line: 0.662

###

Reported values of SH2 binding enrichment for individual entries
molecular target: c-Src SH2; experiment: SH2 binding enrichment of the phosphorylated peptide, bacterial display (enrichment ratio); higher = better substrate or ligand; peptides without Tyr show the background
API doc: respond with a numeric literal and nothing else, no unit.

Solved entries:
residue_codes	quantity_name	value_measured
LADKPYTFEDF [FXN_Y118_YF]	SH2 binding enrichment	0.708
RRYLYYYSYLL [PTEN_Y177_V175L]	SH2 binding enrichment	0.686

# next sequence below
Input line: Form field: reported SH2 binding enrichment of ASKEPYFVHCI [MYO1D_Y585_R588H_YF]
Output line: 0.715

###

molecular target: SHP2-C SH2; test: SH2 binding enrichment of the phosphorylated peptide, bacterial display (enrichment ratio); higher = better substrate or ligand; peptides without Tyr show the background
# SH2 binding enrichment >= 0.8 gives Condition met, anything below gives Condition not met

Please review the following examples before continuing.
residue_codes	label_value
PVVKLYATEGR [RP1_Y199_D202E]	Condition met
EKLIQYCQSKG [AKR1B1_Y199]	Condition not met
KATKGYLDDPT [G6PD_Y322_E317K]	Condition met
FISLIYTNFEV [GSTP1_Y109_A114V_YF]	Condition met
DRTVHYVDEKG [IFT140_Y216_G212R]	Condition met

Input line: Entry LVSCAYQMARG [FGFR1_Y605_V607M] : is its SH2 binding enrichment no less than 0.8?
Output line: Condition met

Input line: Can TSEASYYKSLN [NGEF_Y288] be said to have SH2 binding enrichment at or above 0.8?
Output line: Condition not met

Input line: Textbook exercise: given the entry KTKLGYSPLHQ [ANK1_Y735] , state whether its SH2 binding enrichment is greater than or equal to 0.8.
Output line: Condition met

###

molecular target: FGFR3 (UniProt P22607); assay: phosphorylation enrichment, bacterial display (enrichment ratio); higher = better substrate or ligand; peptides without Tyr show the background
Sequence (P22607 whole entry, looked up): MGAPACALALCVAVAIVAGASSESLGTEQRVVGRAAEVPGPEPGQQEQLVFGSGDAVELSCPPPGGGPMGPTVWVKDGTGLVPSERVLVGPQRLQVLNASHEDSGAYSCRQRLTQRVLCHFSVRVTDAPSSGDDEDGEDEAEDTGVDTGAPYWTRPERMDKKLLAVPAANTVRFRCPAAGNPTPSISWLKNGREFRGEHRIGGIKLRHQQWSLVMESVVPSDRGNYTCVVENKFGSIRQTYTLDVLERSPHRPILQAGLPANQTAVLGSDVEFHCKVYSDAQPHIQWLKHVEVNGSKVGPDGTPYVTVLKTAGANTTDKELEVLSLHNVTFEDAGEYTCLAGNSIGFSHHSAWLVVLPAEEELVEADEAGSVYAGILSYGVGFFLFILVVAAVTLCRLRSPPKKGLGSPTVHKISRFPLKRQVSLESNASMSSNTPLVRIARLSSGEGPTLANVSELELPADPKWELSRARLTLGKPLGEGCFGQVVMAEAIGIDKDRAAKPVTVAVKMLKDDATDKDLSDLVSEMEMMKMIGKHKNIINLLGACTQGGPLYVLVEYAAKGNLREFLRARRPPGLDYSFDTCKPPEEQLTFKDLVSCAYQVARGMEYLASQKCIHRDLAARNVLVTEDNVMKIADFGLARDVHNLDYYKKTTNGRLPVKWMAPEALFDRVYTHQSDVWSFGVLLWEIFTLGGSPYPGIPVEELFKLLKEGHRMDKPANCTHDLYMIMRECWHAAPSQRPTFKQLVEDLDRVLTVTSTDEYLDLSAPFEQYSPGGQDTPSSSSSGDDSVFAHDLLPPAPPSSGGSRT
Each entry below carries its reported phosphorylation enrichment.

Solved entries:
residue_codes	tested_target	phosphorylation enrichment
CTTIHYNFMCT [TP53_Y234_N239T_YF]	FGFR3 (UniProt P22607)	0.752
TQRPFYKGGGG [TYROBP_Y112_YF]	FGFR3 (UniProt P22607)	0.438

// switching to the query sequence
Input line: Entry YSGIYYKPESL [L2HGDH_Y103_H98Y] has what phosphorylation enrichment?
Output line: 9.82

###

target: FGFR3 (UniProt P22607); assay: phosphorylation enrichment, bacterial display (enrichment ratio); higher = better substrate or ligand; peptides without Tyr show the background
Outcome label depends on phosphorylation enrichment relative to 0.8: at/above gives yes, below gives no.

Reference set (5 entries):
residue_codes	tested_target	label_value
RMSQRYGDVLQ [CYP1A2_Y72]	FGFR3 (UniProt P22607)	no
MSLDQYSPSFP [FGFR1_Y776_P772S]	FGFR3 (UniProt P22607)	no
KQMEQYMSFHK [HCN1_Y417_V414M]	FGFR3 (UniProt P22607)	no
LIDGYYRLTAD [JAK2_Y373]	FGFR3 (UniProt P22607)	yes
QFLMMYVWSAS [ABCD1_Y337_K336M]	FGFR3 (UniProt P22607)	yes

Input line: Say whether SENFTYIWWLN [PSG4_Y271_K267E_YF] shows phosphorylation enrichment of 0.8 or more.
Output line: yes

###

biological target: Fes (UniProt P07332); assay: phosphorylation enrichment, bacterial display (enrichment ratio); higher = better substrate or ligand; peptides without Tyr show the background
Sequence (P07332 whole entry, looked up): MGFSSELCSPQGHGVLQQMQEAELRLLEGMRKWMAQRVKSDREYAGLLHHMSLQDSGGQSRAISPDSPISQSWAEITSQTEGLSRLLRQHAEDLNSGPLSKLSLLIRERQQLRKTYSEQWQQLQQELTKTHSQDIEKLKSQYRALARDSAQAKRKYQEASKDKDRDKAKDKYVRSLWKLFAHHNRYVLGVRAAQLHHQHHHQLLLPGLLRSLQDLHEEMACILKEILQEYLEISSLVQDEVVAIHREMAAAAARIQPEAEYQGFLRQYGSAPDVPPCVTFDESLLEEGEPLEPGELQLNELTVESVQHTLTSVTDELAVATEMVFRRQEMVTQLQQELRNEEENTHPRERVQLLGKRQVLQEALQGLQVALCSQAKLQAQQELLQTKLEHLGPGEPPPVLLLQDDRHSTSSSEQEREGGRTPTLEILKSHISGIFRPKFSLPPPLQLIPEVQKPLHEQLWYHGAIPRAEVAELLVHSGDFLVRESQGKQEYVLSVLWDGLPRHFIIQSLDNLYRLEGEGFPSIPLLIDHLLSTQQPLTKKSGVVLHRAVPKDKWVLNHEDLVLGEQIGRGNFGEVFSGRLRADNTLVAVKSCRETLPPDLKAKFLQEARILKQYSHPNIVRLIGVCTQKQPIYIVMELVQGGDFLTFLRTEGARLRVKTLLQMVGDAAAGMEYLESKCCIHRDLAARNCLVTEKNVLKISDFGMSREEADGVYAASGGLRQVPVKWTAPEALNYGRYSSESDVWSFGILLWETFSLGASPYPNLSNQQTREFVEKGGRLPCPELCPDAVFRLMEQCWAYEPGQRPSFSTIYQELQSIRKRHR
quantity_name: phosphorylation enrichment
Just the number, please, no unit after it.

residue_codes	tested_target	value_measured
CRAVKYLQMVR [AVPR2_Y117_G122R]	Fes (UniProt P07332)	0.878
VGTTAYMAPEA [IRAK4_Y354]	Fes (UniProt P07332)	0.893
WVYNHYRWFIW [BRCA2_Y2624_I2627F]	Fes (UniProt P07332)	1.24
WAFNLYDINKF [KCNIP3_Y174_D179Y_YF]	Fes (UniProt P07332)	1.26
PDDPNYSLVDD [PSTPIP2_Y323]	Fes (UniProt P07332)	1.81

Input line: For the sequence shown here, KDLPNYNWNSF [KISS1_Y112] , give the reported phosphorylation enrichment.
Output line: 0.855

Input line: For the sequence QRIFQYIQSRF [DYRK1B_Y273_YF] , what phosphorylation enrichment is on record?
Output line: 1.45

Input line: I would be grateful if you could share the reported phosphorylation enrichment for PSELFYSKIGP [SMG1_Y2254_YF] .
Output line: 1.2

###

system: c-Src; assay: phosphorylation enrichment, bacterial display (enrichment ratio); higher = better substrate or ligand; peptides without Tyr show the background
Each entry below carries its recorded phosphorylation enrichment.

Below, 3 sequences whose answers are already recorded.
residue_codes	phosphorylation enrichment
EFNINYNNELP [THG1L_Y228]	0.354
FAKSVYWDNTL [NUP107_Y296_E298D_YF]	0.76
NGPDVYVLPLT [AATK_Y93]	1.04

Input line: Notebook entry, c-Src assay: phosphorylation enrichment of RHSGSYLVTSV [APC_Y2838] = ?
Output line: 0.463

Input line: Item: AEMKRYSESSS [RAI14_Y869_A870S] Test system: c-Src Read-out: phosphorylation enrichment Value: ?
Output line: 0.382

###

system: c-Src; assay: phosphorylation enrichment, bacterial display (enrichment ratio); higher = better substrate or ligand; peptides without Tyr show the background
Label No if phosphorylation enrichment falls below 0.5; label Yes in every other case.

Below are worked cases with known answers.
residue_codes	label_value
VEDPEYAVTQP [STOML2_Y124_L129P]	Yes
KLLLKYSFHDV [RNF213_Y4141]	No
CTTIHYNFRCN [TP53_Y234_M237R_YF]	No
LKYAIYFEVRE [LAMA2_Y1258_A1261V]	Yes
IQRSLYDRPAS [PDGFRA_Y762]	No
PPTFRYERGSR [INPPL1_Y663_YF]	Yes
NKKHHYRELPV [ERN2_Y860]	Yes
RKQQLYTAMEE [CCDC39_Y593]	Yes
ILGRYYERGSI [PAX5_Y73_T75R]	No
QAEEWYFGKMG [YES1_Y159]	Yes

Input line: Is phosphorylation enrichment at least 0.5? Consider TDLAFYLVREG [ASL_Y376_K380E_YF]
Output line: Yes

Input line: Decide: phosphorylation enrichment of DGFIDYAEFAK [MCFD2_Y138_YF] >= 0.5?
Output line: Yes

Input line: I'd appreciate it if you could say whether ADARMYGVLPW [PLP1_Y207] has phosphorylation enrichment at least equal to 0.5.
Output line: Yes

Input line: Given the entry RLPINYTTRRI [LAMA2_Y2894_G2889R] , answer whether its phosphorylation enrichment meets or surpasses 0.5.
Output line: Yes
